Taken from PubChem BioAssay (NCI).

# System: DMS 114 small cell lung
# test.name: NCI tumour cell line growth inhibition, 48 h
What TGI was measured for each of the following?

>>> measured_value("O=C(CCn1[nH]c(=O)c(Cl)c(Cl)c1=O)NO")
"> 100 µM"

For each entry beneath this line, provide reported TGI.
1. COc1cc(C(Cc2ccccc2)NC(C)=O)oc(=O)c1 (configuration not stated)
2. COc1cccc(/C=C/c2cc(OC)c(OC)c(OC)c2)c1
3. CC(O)CCC(=O)c1ccoc1 (configuration not stated)
4. O=c1[nH]c2c(nc1NC13CC4CC(CC(C4)C1)C3)c(=O)oc1ccccc12
5. Cc1cc([N+](=O)[O-])ccc1Nc1cccc(Cl)c1C
6. C=C(c1nc2ccc(Cl)cc2[nH]c1=O)C(O)c1ccc(C(O)C(=O)c2nc3ccc(Cl)cc3[nH]c2=O)cc1 (configuration not stated)

# output
["> 100 µM", "> 100 µM", "> 9670 µM", "> 100 µM", "28.9 µM", "> 100 µM"]

---

# Tested on: M14 melanoma
# test.name: NCI tumour cell line growth inhibition, 48 h
Hi there, I'd appreciate the recorded TGI for every entry that follows.
Numbers only, in µM.

>>> measured_value("CCCCCCNC(=O)c1cc(NCc2cc(O)ccc2O)ccc1O")
25.2

// below: TGI requested for another compound
# input Given "Cc1cc(C)nc(NC(=O)c2ccc(Br)s2)c1" , state its recorded TGI.
# output 79.5

---

# Test system: ACHN renal
# test.name: NCI tumour cell line growth inhibition, 48 h
quantity: TGI

Known results for compounds:
>>> measured_value("Cn1c2ccccc2c2c3c(c4c5cc(Br)ccc5n(C)c4c21)C(=O)N(O)C3=O")
"0.124 µM"
>>> measured_value("COc1ccc(CN2C(=O)/C(=C\\C(=O)c3ccc(OCCN4CCCCC4)cc3)c3ccccc32)cc1")
"3.05 µM"
>>> measured_value("COc1ccc(N2C(=O)/C(=C(\\C)c3cc4ccccc4oc3=O)N=C2c2cc([N+](=O)[O-])ccc2Cl)cc1")
"> 100 µM"
>>> measured_value("C=C1CC[C@@H]2[C@](C)(COC(C)=O)[C@H](OC(C)=O)CC[C@@]2(C)[C@@H]1CC(Sc1ccccc1)C1=CCOC1=O (stereo not given in full)")
"2.84 µM"

Each compound below has a reported value. Please supply its TGI.
1. Nc1ccc2c(c1)N(C(=O)c1cc3cc(NC(=O)c4cc5ccccc5o4)ccc3[nH]1)CC2CCl (stereo not given)
2. CN(C)N=Nc1ccc(NC=O)cc1
3. OCCCCCCCCCCCOc1ccc(C2OCC3(CO2)COC(c2ccc(OCCCCCCCCCCCO)cc2)OC3)cc1 (stereo not given)
4. Clc1nc2ccccc2nc1CI
5. C=C(CNCc1ccccc1)c1ccc(C(=O)Nc2ccccc2N)cc1
6. O=C(O)c1ccc(N=C(C(=Nc2ccc(C(=O)O)cc2)c2ccccc2)c2ccccc2)cc1
7. CC1(c2cccs2)CC(c2cccs2)=C(C#N)C(=C(C#N)C#N)N1 (stereo not given)
8. N#Cc1nc2ccccc2nc1N1CCN(c2ccc([N+](=O)[O-])cc2)CC1

# output
1. 11.6 µM
2. > 100 µM
3. > 50 µM
4. 3.27 µM
5. 84.3 µM
6. > 100 µM
7. 32.1 µM
8. > 100 µM
